Where do the numbers come from? From patent US20220127354A1.

biological target: T1, huCDH19(1-43)::FLAG::hu(44-141)::ckCDH19(142-776) (construct K, Hu EC1) (human/chicken chimera); experiment: flow cytometry, transfected 293T cells, 2 mM CaCl2;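 also: binding of Alexa647-labelled anti-CDH19 antibodies to cells expressing human/chicken CDH19 chimeras, read as cell-bound fluorescence, with mock-transfected cells as controls, n.d. meaning not determined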
T1 construct: leader (1-43 of the entry) left out; also called huCDH19(44-141)::ckCDH19(142-776)
recorded endpoint: binding result

binder	recorded endpoint	experimental result
hu anti-<huCDH19> 17H8.2 (Ab ID 13874) (antibody, human IgG1, kappa, V domains shown, huIgG1z / huKLC; Bin 3; also called 23B6; 28D10) VH: QVQLQESGPGLVKPSETLSLTCTVSGGSINSYYWSWIRQPPGKGLEWIGYIYYIGSTNYNPSLKSRVTISVDTSKNQFSLKLSSVTAADTALYYCARDSRYRSGWYDAFDIWGQGTMVTVSS VL: DIVLTQSPGTLSLSPGERATLSCRASQSVAGSYLAWYQQKPGQAPRLLISGASSRATGIPDRFSGSGSGTDFTLTISRLEPEDFAVYYCQQYGKSPITFGQGTRLEMKG	binding result	binds
